# ASSAY_METHOD_TEXT: folding enthalpy; higher = less favourable; fluorescence melt of hairpins on a sequencing array, two-state fit
# SETUP_CONDITIONS: sodium 0.088 M
OBSERVABLE: folding enthalpy (kcal/mol)
Numbers only, in kcal/mol.

> print(dat)
                          query.sequence        observable  measured
1  GTCTCAGGAAACTGGGAC (((.(((....))).)))  folding enthalpy     -35.6

For each of the sequences below, note its folding enthalpy.
1. GTTTTGCGAAAGCAAAC (((.(((....))))))
2. GGGTTCGAAAGAAGACCC ((((((....)))..)))
3. GGCGTTTCGAAAGAAGCC (((..(((....))))))
4. TTTTGGAAACAAAA (((((....)))))
5. GCACGGCGAAAGCCCAGC ((..(((....)))..))
6. GAAGACGAAAGTCAATTC ((((((....)))..)))
7. GATAACGGAAACGTTGTC ((.((((....)))).))

## Output
[-13.8, -21.2, -23.8, -9.86, -12.2, -15.5, -28]

----------
Give Tm for every item shown.
# ASSAY_METHOD_TEXT: melting temperature; fluorescence melt of hairpins on a sequencing array, two-state fit, raised by 9.35 °C to match UV melts
# SETUP_CONDITIONS: sodium 0.088 M
Numbers only, in °C.

> print(dat)
                          query.sequence  display.unit  measured
1  GCGTTACCGAAAGGTCGC (((..(((....))))))            °C      51.1
2          ATCGTGAAAACGAT (((((....)))))            °C      49.5

Now take the following sequence into account.
## Input Let me know recorded Tm for GTTGGGGGAAACTCCAAC (((((.(....).))))) , thanks.
## Output 50.4

----------
# ASSAY_METHOD_TEXT: folding enthalpy; higher = less favourable; fluorescence melt of hairpins on a sequencing array, two-state fit
# SETUP_CONDITIONS: sodium 0.088 M
Could you please report measured folding enthalpy for the items listed next?

Worked cases, answers included:
> print(dat)
                    query.sequence        observable        measured
1        GCGGAAGTCCGC ((((....))))  folding enthalpy  -20.9 kcal/mol
2  GATCCCTACGGGATC ((((((...))))))  folding enthalpy  -32.5 kcal/mol
3  GATCGAGCCTCGATC ((((((...))))))  folding enthalpy  -34.9 kcal/mol

List reported folding enthalpy for each of these sequences:
1. GATCCGAACTCGGATC ((((((....))))))
2. GGAAATCGAAAGATCTCC (((.(((....))).)))
3. GTTGCGGGAAACTGCAAC (((((.(....).)))))
4. GTACGTGAAAACGTAC ((((((....))))))
5. GGTGGCGAAAGCCGGACC ((((((....)))..)))
6. GCTATCGAAAGATTAGC ((((((....))).)))
7. GTGTGGGGAAACTCACGC (.(((.(....).))).)

## Output
1: -40.9 kcal/mol; 2: -26.1 kcal/mol; 3: -38.5 kcal/mol; 4: -37 kcal/mol; 5: -12.1 kcal/mol; 6: -26.1 kcal/mol; 7: -28 kcal/mol

Can you give me folding enthalpy for all of these, one by one?
1. GCGCAGCGAAAGCCGAGC ((.(.((....)).).))
2. GCGATGGGTCGC ((((....))))
3. GCTCGAACGAAAGTTAGC (((..(((....))))))
4. GATCCGGGCGCGGATC ((((((....))))))
5. GATCCGTACACGGATC ((((((....))))))
6. TGGGGGAAACCCCA (((((....)))))

## Output
1. -9.37 kcal/mol
2. -23.4 kcal/mol
3. -12.1 kcal/mol
4. -39 kcal/mol
5. -43.2 kcal/mol
6. -17.2 kcal/mol

Each sequence below has a recorded value; state its folding enthalpy.
1. GTGAGTGGAAACACTCGC (.(((((....))))).)
2. GAAGCCGAAAGGCGCTTC ((((((....)))..)))
3. GCCCGTCGAAAGACTGGC (((.(((....))).)))
4. GTGTATGGAAACATATGC (..((((....))))..)

## Output
1: -33.1 kcal/mol; 2: -14.1 kcal/mol; 3: -48.7 kcal/mol; 4: -24.1 kcal/mol

Look up folding enthalpy for the entries below, preserving their order.
1. GCCCTAGGAAACCAAGGC (((.(.(....).).)))
2. GCAGAAGCGAAAGCTTGC (((..(((....))))))
3. GATCCGATTCGGATC ((((((...))))))
4. GCCTTAGGAAACCAAGGC (((((.(....).)))))

## Output
-12 kcal/mol
-16.2 kcal/mol
-39.2 kcal/mol
-27.4 kcal/mol

----------
# ASSAY_METHOD_TEXT: melting temperature; fluorescence melt of hairpins on a sequencing array, two-state fit, raised by 9.35 °C to match UV melts
# SETUP_CONDITIONS: sodium 0.088 M
Values of Tm greater than or equal to 50 °C map to Condition met; values below map to Condition not met.

> print(dat)
                          query.sequence              group
1      GATCTTCTTGAAGATC ((((((....))))))      Condition met
2          AGTCCGAAAGGACT (((((....)))))      Condition met
3  GGAAAGGGAAACCTTTTC (.(((((....))))).)  Condition not met
4  CGCCTGCGGAAACGCGCG (((..(((....))))))  Condition not met
5      GATGCAGAAATGCATC ((((((....))))))      Condition met

With those in mind, consider the next sequence.
## Input // inclusive: Tm at least 50 °C? input: GCGTCGCGAAAGCGTAGC ((..(((....)))..))
## Output Condition met

----------
# ASSAY_METHOD_TEXT: melting temperature; fluorescence melt of hairpins on a sequencing array, two-state fit, raised by 9.35 °C to match UV melts
# SETUP_CONDITIONS: sodium 0.088 M
OBSERVABLE: Tm (°C)
One number for each entry, in °C.

Below are worked cases with known answers.
> print(dat)
                          query.sequence  observable  measured
1  GCACGCGAAAGCGTATGC ((((((....)))..)))          Tm      50.9
2  GATTATGCGAAAGCAATC (((..(((....))))))          Tm      23.4
3  GAGTTCGGAAACGAATTC ((.((((....)))).))          Tm        44
4      GATCTCACAAGAGATC ((((((....))))))          Tm      53.7
5      GATCAGAATCCTGATC ((((((....))))))          Tm      46.9

State the recorded Tm for every item in the following list.
1. GATTACCCGAAAGGGATC (((..(((....))))))
2. GGCTGCGAAAGCACTGCC ((((((....)))..)))

## Output
26.3
50.9

Each sequence below has a reported value. Please supply its Tm.
1. GCTTTGCGAAAGCATTGC ((..(((....)))..))
2. GATTTGCGAAAGCACATC (((.(((....))).)))
3. GCTGGGCGAAAGCCACGC ((..(((....)))..))

## Output
1. 40.9
2. 43.9
3. 48

Each sequence below has a recorded value; state its Tm.
1. GTCACTGGAAACGGTGAC (((((.(....).)))))
2. GTTGCCGAAAGGCTGAAC ((((((....)))..)))
3. GATCCACGGATGGATC ((((((....))))))
4. GATCTGACTACAGATC ((((((....))))))

## Output
1. 52.7
2. 31.4
3. 48.6
4. 49.5

----------
Provide the reported folding enthalpy of each item.
# ASSAY_METHOD_TEXT: folding enthalpy; higher = less favourable; fluorescence melt of hairpins on a sequencing array, two-state fit
# SETUP_CONDITIONS: sodium 0.088 M
Answers are plain numbers, in kcal/mol.

Some entries whose results are on file:
> print(dat)
                          query.sequence  measured
1  GCCTGGCGAAAGCCAAGC ((.((((....)))).))     -17.5
2  GGTCACGGAAACGTGATC (.(((((....))))).)     -30.4
3  GGGAACGGAAACGTTTCC ((.((((....)))).))     -35.2

Lab note: next sequence to report on.
## Input Let me know recorded folding enthalpy for GATCTAACTTTAGATC ((((((....)))))) , thanks.
## Output -29.9
